# TEST SYSTEM: TREM2 extracellular domain (ECD) (residues 19-131, C-terminally biotinylated, deglycosylated or glycosylated) (Homo sapiens)
# Sequence (Q9NZC2 19-131): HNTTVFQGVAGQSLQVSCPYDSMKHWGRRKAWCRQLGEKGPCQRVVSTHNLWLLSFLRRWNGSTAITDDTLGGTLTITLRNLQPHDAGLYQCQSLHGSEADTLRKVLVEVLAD
# ASSAY METHOD TEXT: biochemical
# ASSAY SETUP: Human BLI (Kd; nM) (deglycosylated), Table 4A; deglycosylated human TREM2 ECD; steady-state KD, 25° C.
*1 amine or outer side, *2 acyl side, *3 side chain or, on linkers, in order; H or OH if unused. Where a SMILES comes first, the peptide text is derived from it. Bridges are numbered along the chain shown (N, C = ends). TATA = O=C(CC[*:1])N1CN(C(=O)CC[*:2])CN(C(=O)CC[*:3])C1
OBSERVED PROPERTY: Kd (nM)
// note: answer is a bare numeric in nM

- MOLECULE: "C[C@H](N)C(=O)N[C@H]1CSCCC(=O)N2CN3CN(C2)C(=O)CCSC[C@H](NC(=O)[C@H](Cc2ccc(O)cc2)NC(=O)[C@H](C)NC(=O)[C@H](CO)NC1=O)C(=O)N[C@@H](Cc1ccccc1)C(=O)N[C@@H](Cc1c[nH]c2ccccc12)C(=O)N1CCC[C@H]1C(=O)N[C@@H](Cc1ccccc1)C(=O)N[C@@H](Cc1ccc(O)cc1)C(=O)N[C@@H](Cc1c[nH]cn1)C(=O)N[C@H](C(=O)N[C@@H](C)C(N)=O)CSCCC3=O [BCY18221, A-(SEQ ID NO: 25)-A] (H-ACSAYCFWPFYHCA-NH2; linker 2-6-13 via TATA)"
  Kd [nM]: 1800

Moving on to another molecule below.
Asked: Any idea what Kd was measured for C[C@H](N)C(=O)N[C@H]1CSCCC(=O)N2CN3CN(C2)C(=O)CCSC[C@H](NC(=O)[C@H](Cc2ccc(O)cc2)NC(=O)[C@H](CC(N)=O)NC(=O)[C@H]([C@@H](C)O)NC1=O)C(=O)N[C@@H](Cc1ccccc1)C(=O)N[C@@H](Cc1c[nH]c2ccccc12)C(=O)N1CCC[C@H]1C(=O)N[C@@H](Cc1ccccc1)C(=O)N[C@@H](CCC(N)=O)C(=O)N[C@@H](CO)C(=O)N[C@H](C(=O)N[C@@H](C)C(N)=O)CSCCC3=O [BCY19780, A-(SEQ ID NO: 19)-A] (H-ACTNYCFWPFQSCA-NH2; linker 2-6-13 via TATA) ?
Given back: 2400

* * *

Reported pEC50 is given for each of the following compounds.
# TEST SYSTEM: TREM2 receptor (Homo sapiens, UniProt Q9NZC2)
# Construct: Both parental (TREM2 expressing) and isogenic TREM2 KO iPSC macrophages were plated; endogenous in cells; host or cells: human iPSC-derived macrophages (parental, TREM2 expressing)
# Sequence (Q9NZC2 19-230): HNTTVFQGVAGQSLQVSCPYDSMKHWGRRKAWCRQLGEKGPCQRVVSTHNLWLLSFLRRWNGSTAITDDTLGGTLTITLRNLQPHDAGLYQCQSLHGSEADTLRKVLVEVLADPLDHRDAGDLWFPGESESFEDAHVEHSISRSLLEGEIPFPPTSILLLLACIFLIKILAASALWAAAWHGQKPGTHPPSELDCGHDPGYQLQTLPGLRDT
# ASSAY METHOD TEXT: pSYK Homogenous Time Resolved Fluorescence (HTRF) assay in iPSC macrophages
# Format: cell-based
# ASSAY SETUP: human iPSC macrophages, 5 mins stimulation, phospho (Tyr 525/526) SYK; NB = no binding; read-out: pSYK
pEC50: −log10 of the molar value. *1 amine or outer side, *2 acyl side, *3 side chain or, on linkers, in order; H or OH if unused. Where a SMILES comes first, the peptide text is derived from it. Bridges are numbered along the chain shown (N, C = ends). [ ]: non-standard residue; d: D form. TATA = O=C(CC[*:1])N1CN(C(=O)CC[*:2])CN(C(=O)CC[*:3])C1; Phe(4-Me) = Cc1ccc(C[C@H](N)C(=O)O)cc1; 1Nal = N[C@@H](Cc1cccc2ccccc12)C(=O)O

- COMPOUND: "CC(=O)N[C@H]1CSCCC(=O)N2CN3CN(C2)C(=O)CCSC[C@H](NC(=O)[C@H](Cc2ccc(O)cc2)NC(=O)[C@H](CCC(=O)O)NC(=O)[C@H](CO)NC1=O)C(=O)N[C@@H](Cc1ccccc1)C(=O)N[C@@H](Cc1c[nH]c2ccccc12)C(=O)N1CCC[C@H]1C(=O)N[C@@H](Cc1ccc(C)cc1)C(=O)N[C@@H](Cc1ccc(O)cc1)C(=O)N[C@@H](C)C(=O)N[C@H](C(N)=O)CSCCC3=O [BCY19299, Ac-(SEQ ID NO: 36)] (Ac-CSEYCFWP[Phe(4-Me)]YAC-NH2; linker 1-5-12 via TATA; C-terminus assumed)"
  pEC50: "< 5.00"

Moving on to another compound below.
Asked: Any idea what pEC50 was measured for CC(=O)N[C@H]1CSCCC(=O)N2CN3CN(C2)C(=O)CCSC[C@H](NC(=O)[C@H](Cc2ccc(O)cc2)NC(=O)[C@H](CCC(=O)O)NC(=O)[C@H](CO)NC1=O)C(=O)N[C@@H](Cc1ccccc1)C(=O)N[C@@H](Cc1cccc2ccccc12)C(=O)N1CCC[C@H]1C(=O)N[C@@H](Cc1ccccc1)C(=O)N[C@@H](Cc1ccc(O)cc1)C(=O)N[C@@H](C)C(=O)N[C@H](C(N)=O)CSCCC3=O [BCY19294, Ac-(SEQ ID NO: 32)] (Ac-CSEYCF[1Nal]PFYAC-NH2; linker 1-5-12 via TATA) ?
Given back: > 5.47

* * *

# TEST SYSTEM: TREM2 extracellular domain (ECD) (residues 19-131, C-terminally biotinylated, deglycosylated or glycosylated) (Homo sapiens);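 also: Bio-layer interferometry in 50 mM HEPES pH 7.5 with 150 mM NaCl and 0.1% Tween, double-referenced with blank wells and unrelated-protein sensors, equilibrium response fitted versus concentration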
# ASSAY METHOD TEXT: biochemical
# ASSAY SETUP: Human BLI (Kd; nM) (deglycosylated), Table 4A; deglycosylated human TREM2 ECD; steady-state KD, 25° C.
*1 amine or outer side, *2 acyl side, *3 side chain or, on linkers, in order; H or OH if unused. Where a SMILES comes first, the peptide text is derived from it. Bridges are numbered along the chain shown (N, C = ends). [ ]: non-standard residue; d: D form. TATA = O=C(CC[*:1])N1CN(C(=O)CC[*:2])CN(C(=O)CC[*:3])C1; 1Nal = N[C@@H](Cc1cccc2ccccc12)C(=O)O
For each record, check the reported Kd: if it is below 1000 nM write Criterion met, else write Criterion not met.

- COMPOUND: "C[C@H](N)C(=O)N[C@H]1CSCCC(=O)N2CN3CN(C2)C(=O)CCSC[C@H](NC(=O)[C@H](Cc2ccc(O)cc2)NC(=O)[C@H](CCC(=O)O)NC(=O)[C@H](CO)NC1=O)C(=O)N[C@@H](Cc1ccccc1)C(=O)N[C@@H](Cc1c[nH]c2ccccc12)C(=O)N1CCC[C@H]1C(=O)N[C@@H](Cc1ccccc1)C(=O)N[C@@H](Cc1ccc(O)cc1)C(=O)N[C@@H](CO)C(=O)N[C@H](C(=O)N[C@@H](C)C(N)=O)CSCCC3=O [BCY17669, A-(SEQ ID NO: 2)-A] (H-ACSEYCFWPFYSCA-NH2; linker 2-6-13 via TATA)"
  LABEL: "Criterion not met"
- COMPOUND: "NC(=O)[C@@H]1CSCCC(=O)N2CN3CN(C2)C(=O)CCSC[C@H](N)C(=O)N[C@@H](CO)C(=O)N[C@@H](CCC(=O)O)C(=O)N[C@@H](Cc2ccc(O)cc2)C(=O)N[C@@H](CSCCC3=O)C(=O)N[C@@H](Cc2ccccc2)C(=O)N[C@@H](Cc2c[nH]c3ccccc23)C(=O)N2CCC[C@H]2C(=O)N[C@@H](Cc2ccccc2)C(=O)N[C@@H](Cc2ccc(O)cc2)C(=O)N[C@@H](Cc2c[nH]cn2)C(=O)N1 [BCY18219, SEQ ID NO: 1]"
  LABEL: "Criterion met"
- COMPOUND: "C[C@H](N)C(=O)N[C@H]1CSCCC(=O)N2CN3CN(C2)C(=O)CCSC[C@H](NC(=O)[C@H](Cc2ccc(O)cc2)NC(=O)[C@H](CC(N)=O)NC(=O)[C@H]([C@@H](C)O)NC1=O)C(=O)N[C@@H](Cc1ccccc1)C(=O)N[C@@H](Cc1c[nH]c2ccccc12)C(=O)N1CCC[C@H]1C(=O)N[C@@H](Cc1ccccc1)C(=O)N[C@@H](Cc1c[nH]c2ccccc12)C(=O)N[C@@H](CO)C(=O)N[C@H](C(=O)N[C@@H](C)C(N)=O)CSCCC3=O [BCY19769, A-(SEQ ID NO: 11)-A] (H-ACTNYCFWPFWSCA-NH2; linker 2-6-13 via TATA)"
  LABEL: "Criterion met"

Kindly consider the entry below.
Asked: API: query returns whether the compound falls strictly under 1000 nM in Kd. Query: CC(=O)N[C@H]1CSCCC(=O)N2CN3CN(C2)C(=O)CCSC[C@H](NC(=O)[C@H](Cc2ccc(O)cc2)NC(=O)[C@H](CCC(=O)O)NC(=O)[C@H](CO)NC1=O)C(=O)N[C@@H](Cc1ccccc1)C(=O)N[C@@H](Cc1cccc2ccccc12)C(=O)N1CCC[C@H]1C(=O)N[C@@H](Cc1ccccc1)C(=O)N[C@@H](Cc1ccc(O)cc1)C(=O)N[C@@H](C)C(=O)N[C@H](C(N)=O)CSCCC3=O [BCY19294, Ac-(SEQ ID NO: 32)] (Ac-CSEYCF[1Nal]PFYAC-NH2; linker 1-5-12 via TATA)
Given back: Criterion not met

Where do the numbers come from? From patent US11904020B2.
